- EXPERIMENTAL_SYSTEM: Lipoxygenase-5 (LOX-5) enzyme (Homo sapiens)
- Construct: purchased sigma 437996-500U
- Sequence (P09917 whole entry): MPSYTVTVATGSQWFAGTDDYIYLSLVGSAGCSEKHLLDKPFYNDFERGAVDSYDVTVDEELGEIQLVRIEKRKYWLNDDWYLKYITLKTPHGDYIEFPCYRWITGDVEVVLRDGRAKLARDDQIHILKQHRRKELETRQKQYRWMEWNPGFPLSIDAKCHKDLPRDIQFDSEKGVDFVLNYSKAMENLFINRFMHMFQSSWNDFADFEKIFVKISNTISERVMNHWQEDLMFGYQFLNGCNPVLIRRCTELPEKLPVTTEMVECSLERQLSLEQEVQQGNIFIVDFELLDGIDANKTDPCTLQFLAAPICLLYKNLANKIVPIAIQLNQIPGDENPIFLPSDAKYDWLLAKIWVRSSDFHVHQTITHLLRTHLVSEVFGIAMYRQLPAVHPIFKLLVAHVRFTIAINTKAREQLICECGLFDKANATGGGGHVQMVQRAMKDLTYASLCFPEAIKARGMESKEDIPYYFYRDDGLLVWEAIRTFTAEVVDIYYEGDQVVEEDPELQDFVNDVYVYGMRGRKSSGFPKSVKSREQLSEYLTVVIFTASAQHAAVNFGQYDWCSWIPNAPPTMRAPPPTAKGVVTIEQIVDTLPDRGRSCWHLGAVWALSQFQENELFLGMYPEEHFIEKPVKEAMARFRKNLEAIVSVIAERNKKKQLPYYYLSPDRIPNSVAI
- RUN_DESCRIPTION: In vitro lipoxygenase (LOX-5) inhibitory assay
- Type: biochemical
- CONDITION_INFO: mean ± SEM, n = 5; read-out: IC50 (LOX-5 inhibition) (converted)
Kindly supply the reported IC50 values for the records listed here.
Give just the number in mM; leave the unit off.

Q. What IC50 value was documented for this compound, Cc1ccc([C@H]2[C@H](c3ccccc3)N[C@@]3(C(=O)Nc4ccc(Br)cc43)[C@@]23NC(=O)NC3=O)cc1 (racemic) [4b] ?
A. 5.66

Q. Param item: O=C1NC(=O)[C@]2(N1)[C@@H](c1ccc(F)cc1)[C@H](c1ccccc1)N[C@@]21C(=O)Nc2ccccc21 (racemic) [4i]
A. 2.28

Q. Param item: O=C1NC(=O)[C@]2(N1)[C@@H](c1ccc(F)cc1)[C@H](c1ccccc1)N[C@@]21C(=O)Nc2ccc(Br)cc21 (racemic) [4k]
A. 2.97
